Target: KRas G12C (Homo sapiens, UniProt P01116, G12C)
Sequence (P01116 1-188 isoform P01116-2 G12C): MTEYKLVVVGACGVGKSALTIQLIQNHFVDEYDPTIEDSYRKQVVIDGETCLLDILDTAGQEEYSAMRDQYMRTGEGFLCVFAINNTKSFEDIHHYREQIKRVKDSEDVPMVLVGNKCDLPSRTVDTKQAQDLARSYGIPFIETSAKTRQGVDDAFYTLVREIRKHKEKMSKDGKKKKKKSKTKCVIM
Assay: KRas G12C Probe Occupancy TR-FRET Assay
Assay type: binding
Conditions: 5 minutes incubation of the inhibitor with His-tagged KRas G12C before KRas Probe; read-out: IC50 (nM) @ 5 min
ENDPOINT: IC50 (nM)

The examples below pair each entry with its known result.
>  <MOLECULE>
C=CC(=O)N1CCN2C(=O)c3cc(Cl)c(-c4ccc(F)c5sc(N)nc45)c(Cl)c3OCC[C@H]2C1 (single isomer, unassigned) [Example 1]

>  <ENDPOINT>
IC50

>  <UNITS_TEXT>
nM

>  <OBSERVED_RESULT>
18600

$$$$
>  <MOLECULE>
C=CC(=O)N1CCN2C(=O)c3cc(F)c(-c4ccc(F)c5sc(N)c(C#N)c45)c(Cl)c3OCC[C@H]2C1 (single isomer, unassigned) [Example 5]

>  <ENDPOINT>
IC50

>  <UNITS_TEXT>
nM

>  <OBSERVED_RESULT>
3270

$$$$

1: C=CC(=O)N1CCN2C(=O)c3cc(F)c(-c4cccc5sc(N)c(C#N)c45)c(Cl)c3OCC[C@H]2C1 (single isomer, unassigned) [Example 3]
2: C=CC(=O)N1CCN2C(=O)c3cc(F)c(-c4ccc(F)c5sc(N)c(C#N)c45)c(Cl)c3OC[C@H]2C1 (single isomer, unassigned) [Example 7]
QUERY: Between 1 and 2 , whose recorded IC50 is greater? Write the label of whichever entry you select.
RESULT: 2
(2: 26900 nM, 1: 451 nM)
